Data origin: paper PMC4301979

- measured_on: ABHD16A (Homo sapiens, UniProt O95870)
- Sequence (O95870 whole entry): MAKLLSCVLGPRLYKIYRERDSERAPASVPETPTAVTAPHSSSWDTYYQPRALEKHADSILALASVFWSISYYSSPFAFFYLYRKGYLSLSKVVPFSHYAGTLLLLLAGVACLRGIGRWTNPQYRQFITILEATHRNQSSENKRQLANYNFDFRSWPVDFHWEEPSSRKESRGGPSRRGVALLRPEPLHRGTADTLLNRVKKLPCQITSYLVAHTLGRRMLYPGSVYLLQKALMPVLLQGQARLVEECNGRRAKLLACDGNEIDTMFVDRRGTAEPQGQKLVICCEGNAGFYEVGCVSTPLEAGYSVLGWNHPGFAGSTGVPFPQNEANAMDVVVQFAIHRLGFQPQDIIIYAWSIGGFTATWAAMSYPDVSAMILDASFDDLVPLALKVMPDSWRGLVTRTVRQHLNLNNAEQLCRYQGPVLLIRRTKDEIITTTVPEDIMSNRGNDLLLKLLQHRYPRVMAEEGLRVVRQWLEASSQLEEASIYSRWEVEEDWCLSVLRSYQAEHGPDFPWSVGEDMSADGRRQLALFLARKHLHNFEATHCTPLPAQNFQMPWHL
- procedure_text: biochemical
- Assay type: binding
pIC50: −log10 of the molar value.
attribute_measured: pIC50

Qu. Fill in the recorded pIC50 for this compound, with ABHD16A (Homo sapiens, UniProt O95870) as test system: CCCCCCCCCCCCCC1OC(=O)/C1=C\CCCCC(N)=O (stereo not shown)
Ans. 6.30 to 6.70
